meta.source: patent US20220177604A1

- targetDesc: T1, human immunoglobulin E (hIgE) (human, UniProt P01854-1 1-428)
- T1 construct: also called human IgE; Native IgE (Abcam)
- T1 sequence (P01854 whole entry): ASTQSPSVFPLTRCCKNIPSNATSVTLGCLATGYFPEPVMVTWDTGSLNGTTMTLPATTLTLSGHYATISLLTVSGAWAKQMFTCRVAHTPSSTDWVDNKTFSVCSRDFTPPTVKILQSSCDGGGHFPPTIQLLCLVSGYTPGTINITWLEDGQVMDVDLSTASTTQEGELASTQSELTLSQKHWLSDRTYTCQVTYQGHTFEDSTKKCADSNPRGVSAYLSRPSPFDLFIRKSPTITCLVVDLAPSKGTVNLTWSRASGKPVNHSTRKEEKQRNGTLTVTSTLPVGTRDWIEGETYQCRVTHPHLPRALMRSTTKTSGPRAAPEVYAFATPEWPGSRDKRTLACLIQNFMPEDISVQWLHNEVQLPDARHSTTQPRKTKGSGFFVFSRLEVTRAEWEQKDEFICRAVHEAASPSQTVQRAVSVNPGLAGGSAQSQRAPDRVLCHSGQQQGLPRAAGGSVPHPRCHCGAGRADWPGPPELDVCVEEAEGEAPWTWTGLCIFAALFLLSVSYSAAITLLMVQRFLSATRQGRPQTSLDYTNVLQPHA
- testMethodNotes: SPR competition
Catalogue of binders with associated Ratio pH 6/7.4 (IC50)
readout: Ratio pH 6/7.4 (IC50)

>>> reportedresult("16E4 human IgG1 mAb (antibody, V domains shown, also called clone 16E4) VH: EVQLVESGGGLVQPGGSLRLSCAASGFTFSSYYMSWVRQAPGKGLEWVSSIYSDGSYAYYADSVKGRFTISRDNAKNTLYLQMNSLKSEDTAVYYCAKDLKARYSGTYHDEGYDYWGQGTQVTVSS VL: SSALTQPSALSVTLGQSAKITCQGGSLGATYAYWYQQKPGQAPVLVIYDDDSRPSGIPERFSGSSSGGRATLTISGAQAEDEGDYYCQSAYSNGNAVFGGGTHLTVL")
1.2
>>> reportedresult("3D6 human IgG1 mAb (antibody, V domains shown, human IgG1 and human light chain constant domains; also called clone 3D6) VH: QVQLVESGGGLVQPGGSLRLSCAASGFTFSSYYMTWVRQAPGKGLEWVSSIYSDGSNTYYADSVKGRFTISRDNAKNTLHLQMNSLKSEDTAVYYCAKDLKARYSGSYHDEGYDYWGQGTQVTVSS VL: QSALTQPSALSVTLGQTAKITCQGGSLGSSYAHWYQQKPGQAPVLVIYDDDSRPSGIPERFSGSSSGGRATLTISGAQAEDEGDYYCQSADSSGNPVFGGGTKLTVL")
1.8
>>> reportedresult("3D1 human IgG1 mAb (antibody, V domains shown, human IgG1 and human light chain constant domains; also called clone 3D1; WT 3D1) VH: QLQVVESGGGLVQPGGSLRLSCAASGFTFSSYYMSWVRQAPGKGLEWVSSIYSDGRGSKTFYADSVKGRFTISRDNAKNTLYLQMNSLKSEDTAVYFCAKDLLVAARGSMDYWGQGTQVTVSS VL: NFMLTQPSAVSVSLEQTARITCQGGTLGSYGAHWYQQKPGQAPVLLIYGDNSRPSGIPERFSGTRSGGTATLTISGAQAEDEADYYCQSFDYSGNAVFGGGTHLTVL")
0.8
